Tested on: 377384-186-R-J1-PDC complex spheroid viability
Experiment: Anticancer human tumor 377384-186-R-J1-PDC patient-derived pancreatic carcinoma cell line growth inhibition [CLK]; active = viability on the fitted dose curve at most 10% of control; inactive = the rest
Settings: second compound 1 µM; first compound 1 µM
Hi there, use one of these labels in your reply, thanks! Y = active, N = inactive

Please let me know the test result on file for CCc1c2c(nc3ccc(O)cc13)-c1cc3c(c(=O)n1C2)COC(=O)[C@]3(O)CC + CNC(=O)c1ccc(Nc2nc(OC3CCCC3)c3c(-c4ccc5nc(C)oc5c4)c[nH]c3n2)c(OC)c1 . Y

====

Exercise: for every item that follows, state its recorded IC50.
Tested on: 377384-186-R-J1-PDC complex spheroid viability
Assay: Anticancer human tumor 377384-186-R-J1-PDC cell line growth inhibition [CLK];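 also: spheroids exposed to agents for 7 days before reading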
Conditions: curve of first compound; second compound 1 µM

Here is how some compounds turned out for IC50.
compound="NC(=O)C(=Cn1cnc(-c2cc(C(F)(F)F)cc(C(F)(F)F)c2)n1)c1cncnc1 + CN1CCN(c2cc(C(=O)Nc3cc4cc(-c5cnn(C)c5)ccc4cn3)ccn2)CC1" measured_result="< 0.00949 µM"
compound="O=C(c1cc(Cc2n[nH]c(=O)c3ccccc23)ccc1F)N1CCN(C(=O)C2CC2)CC1 + CN1CCN(c2cc(C(=O)Nc3cc4cc(-c5cnn(C)c5)ccc4cn3)ccn2)CC1" measured_result="< 0.0316 µM"
compound="O=c1[nH]cc(F)c(=O)[nH]1 + CNC(=O)c1ccc(Nc2nc(OC3CCCC3)c3c(-c4ccc5nc(C)oc5c4)c[nH]c3n2)c(OC)c1" measured_result="< 0.0316 µM"
compound="CC(C)CC(NC(=O)C(Cc1ccccc1)NC(=O)c1cnccn1)B(O)O (stereo not given) + CN1CCN(c2cc(C(=O)Nc3cc4cc(-c5cnn(C)c5)ccc4cn3)ccn2)CC1" measured_result="< 0.000949 µM"
compound="C#Cc1c(F)ccc2cc(O)cc(-c3ncc4c(N5CC6CCC(C5)N6)nc(OCC56CCCN5CC(F)C6)nc4c3F)c12 (stereo not given) + CNC(=O)c1ccc(Nc2nc(OC3CCCC3)c3c(-c4ccc5nc(C)oc5c4)c[nH]c3n2)c(OC)c1" measured_result="< 0.0316 µM"
compound="COc1ccc([C@@H](O)c2cc(-c3ncnc4cc(N5CCOCC5)ccc34)c(F)cc2Cl)nn1 + CNC(=O)c1ccc(Nc2nc(OC3CCCC3)c3c(-c4ccc5nc(C)oc5c4)c[nH]c3n2)c(OC)c1" measured_result="< 0.0316 µM"
compound="COc1c(OCCCN2CCOCC2)ccc2c3n(c(=NC(=O)c4cnc(N)nc4)nc12)CCN3 + CN1CCN(c2cc(C(=O)Nc3cc4cc(-c5cnn(C)c5)ccc4cn3)ccn2)CC1" measured_result="< 0.00316 µM"
compound="CCN1CCN(Cc2ccc(Nc3ncc(F)c(-c4cc(F)c5nc(C)n(C(C)C)c5c4)n3)nc2)CC1 + CNC(=O)c1ccc(Nc2nc(OC3CCCC3)c3c(-c4ccc5nc(C)oc5c4)c[nH]c3n2)c(OC)c1" measured_result="< 0.00316 µM"

Hi team, please reply with IC50 for each item in this list.
1. CC(=O)O[C@H]1C(=O)[C@@]2(C)[C@H]([C@H](OC(=O)c3ccccc3)[C@]3(O)C[C@H](OC(=O)[C@H](O)[C@@H](NC(=O)c4ccccc4)c4ccccc4)C(C)=C1C3(C)C)[C@]1(OC(C)=O)CO[C@@H]1C[C@@H]2O + CN1CCN(c2cc(C(=O)Nc3cc4cc(-c5cnn(C)c5)ccc4cn3)ccn2)CC1
2. CCN1CCN(Cc2ccc(Nc3ncc(F)c(-c4cc(F)c5nc(C)n(C(C)C)c5c4)n3)nc2)CC1 + CN1CCN(c2cc(C(=O)Nc3cc4cc(-c5cnn(C)c5)ccc4cn3)ccn2)CC1

1: < 0.0316 µM; 2: < 0.00316 µM
